Recorded inhibition at 0.1 µM for the following compounds
- assayed system: human PDE10A enzyme (Homo sapiens, UniProt Q9Y233)
- Construct: Human PDE10A full-length gene was transfected into Sf9 or COS-7 cells; His-tag; made in house; host or cells: Sf9 or COS-7 cells
- Sequence (Q9Y233 267-1055): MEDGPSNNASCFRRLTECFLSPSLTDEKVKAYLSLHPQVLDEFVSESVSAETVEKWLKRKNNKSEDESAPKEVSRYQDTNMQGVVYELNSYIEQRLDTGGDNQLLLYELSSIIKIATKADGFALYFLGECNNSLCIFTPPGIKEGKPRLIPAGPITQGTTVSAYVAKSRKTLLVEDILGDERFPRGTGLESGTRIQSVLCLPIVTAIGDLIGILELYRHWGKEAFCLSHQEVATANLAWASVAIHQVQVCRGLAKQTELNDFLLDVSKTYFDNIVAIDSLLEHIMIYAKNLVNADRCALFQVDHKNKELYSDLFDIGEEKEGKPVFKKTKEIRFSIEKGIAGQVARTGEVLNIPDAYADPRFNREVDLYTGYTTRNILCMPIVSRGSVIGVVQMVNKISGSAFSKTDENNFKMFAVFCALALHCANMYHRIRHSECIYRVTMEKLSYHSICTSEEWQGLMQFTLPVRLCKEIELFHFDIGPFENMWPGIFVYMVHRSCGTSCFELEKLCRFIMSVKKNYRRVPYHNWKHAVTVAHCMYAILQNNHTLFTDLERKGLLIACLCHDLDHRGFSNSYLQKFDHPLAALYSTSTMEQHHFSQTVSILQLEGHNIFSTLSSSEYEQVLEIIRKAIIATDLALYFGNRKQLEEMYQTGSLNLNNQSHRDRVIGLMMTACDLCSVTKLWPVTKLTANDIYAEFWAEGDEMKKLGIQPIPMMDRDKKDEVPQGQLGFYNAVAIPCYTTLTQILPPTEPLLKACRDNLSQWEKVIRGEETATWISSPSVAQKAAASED
- experimental details: PDE10A Enzyme Activity Inhibition Test (SPA, [3H]cGMP substrate)
- Format: biochemical
- condition label: at 100 nM compound; read-out: PDE10A enzyme activity inhibition rate
- Procedure: PDE10A Enzyme Activity Inhibition Test Human PDE10A full-length gene was transfected into Sf9 or COS-7 cells, the cells were disrupted and centrifuged, and human PDE10A enzyme was obtained from the residue. The enzyme extracted from Sf9 cells was partially purified using His-tag affinity column. […] The PDE activity was measured using an SPA (Scintillation Proximity Assay) (GE Healthcare). […] The compounds were evaluated in duplicate in 96-well half-area plates (Corning). […]

Worked set:
[[record]]
compound = "O=c1cnn(-c2cccc(C(F)(F)F)c2)cc1-c1ccnn1-c1ccccc1"
result = "< 50%"

[[record]]
compound = "O=c1c(-c2ccnn2-c2ccccc2)nn(-c2cccc(C(F)(F)F)c2)c2ccoc12"
result = "≥ 50%"

[[record]]
compound = "COc1cn(Cc2cccc(-c3ccccc3)c2)nc(-c2ccnn2-c2ccccc2)c1=O"
result = "≥ 50%"

[[record]]
compound = "COc1cn(C2CCc3ccccc3C2)nc(-c2ccnn2-c2ccccc2)c1=O (centres unmarked)"
result = "≥ 50%"

[[record]]
compound = "COc1cn(Cc2ccccc2)nc(-c2ccnn2-c2ccccc2)c1=O"
result = "≥ 50%"

[[record]]
compound = "O=c1ccn(-c2cccc(C(F)(F)F)c2)cc1-c1ccnn1-c1ccccc1"
result = "< 50%"

[[record]]
compound = "COc1cn(Cc2ccccc2C(F)(F)F)nc(-c2ccnn2-c2ccccc2)c1=O"
result = "< 50%"

[[record]]
compound = "COc1cn(C2=CCN(Cc3ccccc3)CC2)nc(-c2ccnn2-c2ccccc2)c1=O"
result = "≥ 50%"

[[record]]
compound = "COc1cn(C2CCN(c3nccs3)CC2)nc(-c2ccnn2-c2ccccc2)c1=O"
result = "≥ 50%"

[[record]]
compound = "O=c1ccn(C2CCN(Cc3ccccc3)CC2)nc1-c1ccnn1-c1ccccc1"
result = "< 50%"


For human PDE10A enzyme (Homo sapiens, UniProt Q9Y233), provide inhibition at 0.1 µM of O=c1[nH]nc(-c2ccccc2)cc1-c1ccnn1-c1ccccc1 please.
< 50%

For human PDE10A enzyme (Homo sapiens, UniProt Q9Y233), provide inhibition at 0.1 µM of O=c1cc(-c2ccccc2)sc(-c2ccnn2-c2ccccc2)c1 please.
< 50%

For human PDE10A enzyme (Homo sapiens, UniProt Q9Y233), provide inhibition at 0.1 µM of COc1cn(C2CCCc3ccccc32)nc(-c2ccnn2-c2ccccc2)c1=O (centres unmarked) please.
< 50%

For human PDE10A enzyme (Homo sapiens, UniProt Q9Y233), provide inhibition at 0.1 µM of O=c1ccn(C2CCN(c3ccccc3)CC2)nc1-c1ccnn1-c1ccccc1 please.
≥ 50%

For human PDE10A enzyme (Homo sapiens, UniProt Q9Y233), provide inhibition at 0.1 µM of O=c1cc(-c2ccccc2)oc(-c2ccnn2-c2ccccc2)c1O please.
< 50%
